system: NCI-H460 lung; test: NCI-60 one-dose screen, 48 h (100 = growth as untreated, 0 = no growth, -100 = all killed); conditions: 10 µM
This is part of a sample that, as a whole, favours compounds with a hit. Of some 83,000 tested, about 20% had one in any assay.
Listed here: items and their measured growth.
Field: numeric (%). Do not append units.

Consider the reported growth for these molecules:
Cc1ccc(C(=O)c2ccccc2)c(C)c1
110
FC(F)(F)c1ccc2c(c1)N(CCCN1CCN(C3CC3)CC1)c1ccccc1S2
24.4
CN(C)c1ccc2nc3ccc(=N)cc-3sc2c1
56.7

Entry CC(C)(C)n1nc(C2CC2)c(Br)c1NC(=O)c1ccccc1F has what growth?
102

Entry COC(=O)Nc1nc2ccc(C(=O)c3cccs3)cc2[nH]1 has what growth?
7.45

Entry CC(=O)Nc1c(C)cc(C)cc1C has what growth?
105

Entry CCCC[P+](c1ccccc1)(c1ccccc1)c1ccccc1 has what growth?
53.4

Entry c1ccc(CN2COc3c(ccc4c3OCN(Cc3ccccc3)C4)C2)cc1 has what growth?
9.51
